System: protein pool extracted from murine liver
Assay: In vitro enzyme hydrolysis assay, thin-layer chromatography detection
Assay type: in vitro ADME, mouse
Conditions: 1 mg murine liver protein extract, 50 μg compound, 24 hours, 25° C.
experimental readout: enzymatic hydrolysis after 24 h (FIG. 3)

Case "O=C(CCCC[C@@H]1CCSS1)NCCCc1ccccc1" , protein pool extracted from murine liver, enzymatic hydrolysis after 24 h (FIG. 3) recorded as partial hydrolization

Measured enzymatic hydrolysis after 24 h (FIG. 3) for this entry "O=C(CCCC[C@@H]1CCSS1)NCCCCc1ccccc1" on protein pool extracted from murine liver: partial hydrolization

====

System: protein pool extracted from murine liver
Assay: In vitro enzyme hydrolysis assay, thin-layer chromatography detection
Assay type: in vitro ADME, mouse
Settings: 1 mg murine liver protein extract, 50 μg compound, 1 hour, 25° C.
experimental readout: enzymatic hydrolysis after 1 h (FIG. 2)

Observed enzymatic hydrolysis after 1 h (FIG. 2), protein pool extracted from murine liver, CC(=O)OC(C)OC(=O)CCCC[C@@H]1CCSS1 (stereo partly shown) : partial hydrolization

Entry "CCCC(=O)OCOC(=O)CCCC[C@@H]1CCSS1" ; assay system protein pool extracted from murine liver; enzymatic hydrolysis after 1 h (FIG. 2) recorded at completely hydrolyzed

# lookup: CC(OC(=O)CCCC[C@@H]1CCSS1)OC(=O)C(C)(C)C (stereo partly shown) on protein pool extracted from murine liver, enzymatic hydrolysis after 1 h (FIG. 2) = partial hydrolization

Form field, enzymatic hydrolysis after 1 h (FIG. 2) with protein pool extracted from murine liver, item "CC(C)(C)C(=O)OCOC(=O)CCCC[C@@H]1CCSS1" : completely hydrolyzed

The reported numbers originate from patent US20110212954A1.
